These entries and their values trace back to patent US20250326753A1.

Let's look at some compounds and their measured IC50.
# measurement.target: CXCR4 (Homo sapiens, UniProt P61073)
# Sequence (P61073 whole entry): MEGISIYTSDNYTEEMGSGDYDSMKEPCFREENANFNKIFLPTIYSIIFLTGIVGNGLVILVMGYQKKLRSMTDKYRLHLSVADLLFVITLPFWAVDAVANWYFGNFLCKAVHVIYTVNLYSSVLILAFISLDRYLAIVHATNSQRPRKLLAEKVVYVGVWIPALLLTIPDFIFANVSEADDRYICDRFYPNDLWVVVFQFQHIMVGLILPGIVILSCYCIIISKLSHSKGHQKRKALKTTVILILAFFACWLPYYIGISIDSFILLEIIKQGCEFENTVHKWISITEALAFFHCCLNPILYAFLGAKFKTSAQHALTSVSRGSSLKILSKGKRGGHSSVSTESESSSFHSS
# protocol.summary: Chemokine (CXCL12-AF647) binding inhibition assay, Jurkat cells expressing CXCR4
# condition.info: CXCL12-AF647 25 ng/ml, read-out: IC50 CXCL-12 binding Jurkat

Some entries whose results are on file:
line.notation | experimental.endpoint | observed.value
Cc1cccnc1[C@H]1CCC[C@@H](c2ncccc2C)N1CCNC(=O)[C@@H]1CC[C@@H](Nc2ncnc3[nH]cc(C(=O)c4ccc(Oc5ccccc5)cc4Cl)c23)CO1 | IC50 | 1000 to 2500 nM
Cc1cc(-c2ncnc3[nH]c(C(=O)NCCCCN4[C@@H](c5ncccc5C)CCC[C@H]4c4ncccc4C)cc23)ccc1CNC(=O)c1ccc(C(F)(F)F)cc1 | IC50 | 1 to 100 nM
Cc1cc(-c2ccnc(Nc3cnn(CCCN4[C@@H](c5ncccc5C)CCC[C@H]4c4ncccc4C)c3)n2)ccc1CNC(=O)N1CC(OC(C)C)C1 | IC50 | 1 to 100 nM

compound "Cc1cccnc1[C@H]1CCC[C@@H](c2ncccc2C)N1CCN1CCN(C(=O)c2ccc(-c3cc4c(-c5cccc(NC(=O)c6ccccc6)c5C)ncnc4[nH]3)cc2)CC1" , IC50 observed: 1 to 100 nM

compound "Cc1cc(-c2ccnc(Nc3cnn(CCN4[C@@H](c5ncccc5C)CCC[C@H]4c4ncccc4C)c3)n2)ccc1CNC(=O)N1CC(OC(F)(F)F)C1" , IC50 observed: 1 to 100 nM

---

# measurement.target: BTK (Bruton tyrosine kinase) (Homo sapiens)
# Construct: GST or His (the text leaves open which); purchased Reaction Biology Europe GmbH Lot 012,11; host or cells: Sf9 insect cells or E. coli (not resolved)
# protocol.summary: BTK screening assay (33PanQinase Activity Assay, radiometric)
# Format: biochemical
# condition.info: Inhibition of BTK, radiometric 33PanQinase Activity Assay, 3 μM ATP, 10 concentrations in singlicate, top 10 μM; read-out: 33PanQinase ® Radiometric IC50
pIC50: −log10 of the molar value.
Let's look at some compounds and their measured pIC50.

Some entries whose results are on file:
compound | pIC50
Cc1cccnc1[C@H]1CCC[C@@H](c2ncccc2C)N1CCCNC1CN(C(=O)c2cc3c(-c4cccc(NC(=O)c5ccc(F)cc5)c4C)ncnc3[nH]2)C1 [Compound I-91] | < 5.60
Cc1cc(-c2ncnc3[nH]c(C(=O)NCCCCN4[C@@H](c5ncccc5C)CCC[C@H]4c4ncccc4C)cc23)ccc1CNC(=O)c1ccc(C(F)(F)F)cc1 [Compound I-46] | 7.00 to 9.00
Cc1cccnc1[C@H]1CCC[C@@H](c2ncccc2C)N1CCCNC(=O)[C@@H]1CC[C@@H](Nc2ncnc3[nH]cc(C(=O)c4ccc(Oc5ccccc5)cc4Cl)c23)CO1 [Compound I-20] | 7.00 to 9.00
Cc1cccnc1[C@H]1CCC[C@@H](c2ncccc2C)N1CCCCNC(=O)OC[C@@H]1CC[C@@H](Nc2ncnc3[nH]cc(C(=O)c4ccc(Oc5ccccc5)cc4Cl)c23)CO1 [Compound I-18] | 7.00 to 9.00

Continue with the compound presented below.
compound Cc1cc(-c2ccnc(Nc3cnn(CCCN4[C@@H](c5ncccc5C)CCC[C@H]4c4ncccc4C)c3)n2)ccc1CNC(=O)N1CC(OC(C)C)C1 [Compound I-12] , pIC50 observed: 7.00 to 9.00

---

# measurement.target: BTK (Bruton tyrosine kinase) (Homo sapiens)
# Construct: GST or His (the text leaves open which); purchased Reaction Biology Europe GmbH Lot 012,11; host or cells: Sf9 insect cells or E. coli (not resolved)
# protocol.summary: BTK screening assay (33PanQinase Activity Assay, radiometric)
# Type: biochemical
# condition.info: Inhibition of BTK, radiometric 33PanQinase Activity Assay, 3 μM ATP, 10 concentrations in singlicate, top 10 μM; read-out: 33PanQinase ® Radiometric IC50
experimental.endpoint: IC50

compound | IC50
Cc1cc(-c2ncnc3[nH]c(C(=O)NCCCCN4[C@@H](c5ncccc5C)CCC[C@H]4c4ncccc4C)cc23)ccc1CNC(=O)c1ccc(C(C)(C)C)cc1 | 1 to 100 nM
Cc1cccnc1[C@H]1CCC[C@@H](c2ncccc2C)N1CCNC1CN(C(=O)c2ccc(-c3cc4c(-c5cccc(NC(=O)c6ccc(C(C)(C)C)cc6)c5C)ncnc4[nH]3)cc2)C1 | 1 to 100 nM
Cc1cccnc1[C@H]1CCC[C@@H](c2ncccc2C)N1CCNC(=O)[C@@H]1CC[C@@H](Nc2ncnc3[nH]cc(C(=O)c4ccc(Oc5ccccc5)cc4Cl)c23)CO1 | 1 to 100 nM
Cc1cccnc1[C@H]1CC(C(=O)OC[C@@H]2CC[C@@H](Nc3ncnc4[nH]cc(C(=O)c5ccc(Oc6ccccc6)cc5Cl)c34)CO2)C[C@@H](c2ncccc2C)N1CCCCN (stereo partly shown) | 1 to 100 nM
Cc1cccnc1C1CCCCN1CCN1CCN(C(=O)c2ccc(-c3cc4c(-c5cccc(NC(=O)c6ccccc6)c5C)ncnc4[nH]3)cc2)CC1 (stereo not shown) | 100 to 1000 nM

compound "Cc1cccnc1[C@H]1CCC[C@@H](c2ncccc2C)N1CCNC1CN(C(=O)c2cc3c(-c4cccc(NC(=O)c5ccccc5)c4C)ncnc3[nH]2)C1" , IC50 observed: > 2500 nM

compound "Cc1cccnc1[C@H]1CCC[C@@H](c2ncccc2C)N1CCCCN1CCN(C(=O)c2ccc(-c3cc4c(-c5cccc(NC(=O)c6ccccc6)c5C)ncnc4[nH]3)cc2)CC1" , IC50 observed: 100 to 1000 nM

---

# measurement.target: CXCR4 (Homo sapiens)
# protocol.summary: Chemokine (CXCL12-AF647) binding inhibition assay, Jurkat cells expressing CXCR4
# condition.info: CXCL12-AF647 25 ng/ml, read-out: IC50 CXCL-12 binding Jurkat
experimental.endpoint: IC50

Some entries whose results are on file:
compound | measurement.target | experimental.endpoint | observed.value
Cc1cc(-c2ncnc3[nH]c(C(=O)NCCCN4[C@@H](c5ncccc5C)CCC[C@H]4c4ncccc4C)cc23)ccc1CNC(=O)c1ccc(C(F)(F)F)cc1 | CXCR4 (Homo sapiens) | IC50 | 1 to 100 nM
Cc1cc(-c2ncnc3[nH]c(S(=O)(=O)NCCN4[C@@H](c5ncccc5C)CCC[C@H]4c4ncccc4C)cc23)ccc1CNC(=O)c1ccc(C(C)(C)C)cc1 | CXCR4 (Homo sapiens) | IC50 | > 2500 nM
Cc1cc(-c2ccnc(Nc3cnn(CCN4CCCCC4c4ncccc4C)c3)n2)ccc1CNC(=O)N1CC(OC(C)C)C1 (centres unmarked) | CXCR4 (Homo sapiens) | IC50 | > 2500 nM
Cc1cccnc1[C@H]1CCC[C@@H](c2ncccc2C)N1CCCCNC(=O)c1cc2c(-c3ccc(CNC(=O)c4ccc(C(C)(C)C)cc4)cc3)ncnc2[nH]1 | CXCR4 (Homo sapiens) | IC50 | 1 to 100 nM

Continue with the compound presented below.
compound "Cc1cccnc1[C@H]1CCC[C@@H](c2ncccc2C)N1CCNC1CN(C(=O)c2ccc(-c3cc4c(-c5cccc(NC(=O)c6ccc(C(F)(F)F)cc6)c5C)ncnc4[nH]3)cc2)C1" , IC50 observed: 1 to 100 nM

---

# measurement.target: AuroraA (Homo sapiens, UniProt O14965)
# Construct: purchased Reaction Biology Europe GmbH
# Sequence (O14965 whole entry): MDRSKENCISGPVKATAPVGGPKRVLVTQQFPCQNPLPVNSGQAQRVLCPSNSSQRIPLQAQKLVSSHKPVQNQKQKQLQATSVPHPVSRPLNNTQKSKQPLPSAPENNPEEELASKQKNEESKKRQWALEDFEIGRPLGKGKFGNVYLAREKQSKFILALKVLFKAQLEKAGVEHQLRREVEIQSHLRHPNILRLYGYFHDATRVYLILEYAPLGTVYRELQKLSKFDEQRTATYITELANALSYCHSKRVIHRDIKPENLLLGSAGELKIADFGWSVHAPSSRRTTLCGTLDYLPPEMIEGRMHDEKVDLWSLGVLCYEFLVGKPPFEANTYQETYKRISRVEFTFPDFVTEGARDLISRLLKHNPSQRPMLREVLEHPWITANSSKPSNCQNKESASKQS
# protocol.summary: PanQinase kinase panel: AuroraA
# Format: biochemical
# condition.info: read-out: INHIBITORY EFFECT @ 1 uM: AuroraA
experimental.endpoint: inhibition at 1 µM

Some entries whose results are on file:
line.notation | measurement.target | observed.value
C=CC(=O)N1CCC([C@@H]2CCNc3c(C(N)=O)c(-c4ccc(Oc5ccccc5)cc4)nn32)CC1 | AuroraA (Homo sapiens, UniProt O14965) | < 50%
Cc1cccnc1[C@H]1CCC[C@@H](c2ncccc2C)N1CCN1CCN(C(=O)c2ccc(-c3cc4c(-c5cccc(NC(=O)c6ccccc6)c5C)ncnc4[nH]3)cc2)CC1 | AuroraA (Homo sapiens, UniProt O14965) | 50 to 69%
COc1ccc(F)cc1C(=O)NCc1ccc(-c2nn([C@@H](C)C(F)(F)F)c(N)c2C(N)=O)cc1 | AuroraA (Homo sapiens, UniProt O14965) | < 50%

Continue with the compound presented below.
compound "O=C(c1ccc(Oc2ccccc2)cc1Cl)c1c[nH]c2ncnc(N[C@@H]3CC[C@@H](CO)OC3)c12" , inhibition at 1 µM observed: 50 to 69%

---

# measurement.target: BTK (Bruton tyrosine kinase) (Homo sapiens, UniProt Q06187)
# Construct: GST or His (the text leaves open which); purchased Reaction Biology Europe GmbH Lot 012,11; host or cells: Sf9 insect cells or E. coli (not resolved)
# Sequence (Q06187 whole entry): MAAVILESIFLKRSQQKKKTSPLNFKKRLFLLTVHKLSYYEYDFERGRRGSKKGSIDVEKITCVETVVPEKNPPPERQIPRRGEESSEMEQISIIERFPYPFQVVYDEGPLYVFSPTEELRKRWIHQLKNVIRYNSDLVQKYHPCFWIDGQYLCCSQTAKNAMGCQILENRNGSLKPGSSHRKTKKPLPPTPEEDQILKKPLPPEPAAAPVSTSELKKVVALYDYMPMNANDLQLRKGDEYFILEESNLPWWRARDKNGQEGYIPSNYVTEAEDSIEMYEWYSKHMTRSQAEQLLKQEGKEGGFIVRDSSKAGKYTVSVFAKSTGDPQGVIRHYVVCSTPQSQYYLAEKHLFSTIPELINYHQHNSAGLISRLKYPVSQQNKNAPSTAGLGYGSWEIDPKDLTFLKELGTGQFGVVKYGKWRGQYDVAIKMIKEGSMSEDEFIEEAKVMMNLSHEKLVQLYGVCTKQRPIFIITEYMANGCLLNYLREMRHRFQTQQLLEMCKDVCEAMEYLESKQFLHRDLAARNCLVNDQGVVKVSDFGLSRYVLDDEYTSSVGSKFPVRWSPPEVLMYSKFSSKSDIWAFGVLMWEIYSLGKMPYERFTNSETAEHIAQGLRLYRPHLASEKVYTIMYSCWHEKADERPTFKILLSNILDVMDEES
# protocol.summary: BTK screening assay (33PanQinase Activity Assay, radiometric)
# Type: biochemical
experimental.endpoint: IC50

For "Cc1cccnc1[C@H]1CCC[C@@H](c2ncccc2C)N1CCNC(=O)c1cc2c(-c3cccc(NC(=O)c4ccccc4)c3C)ncnc2[nH]1" on BTK (Bruton tyrosine kinase) (Homo sapiens, UniProt Q06187), measured IC50 was > 2.5 µM
